Task for the reader: assign each of the following molecules its reported mass density.
Recorded conditions: 333.15 K; 100 kPa; Liquid; Vibrating tube method
The figure you give is taken to be in kg/m3; do not add the unit.

Can you look up the measured mass density of CCn1cc[n+](CCOC)c1.N#C[S-] [1-ethyl-3-(2-methoxyethyl)imidazolium thiocyanate] for me?
1100.01

# iterate: `CCn1cc[n+](CCOC)c1.O=S(=O)([N-]S(=O)(=O)C(F)(F)F)C(F)(F)F`
1428.39

Then this molecule: CC(=O)[O-].CCn1cc[n+](CCOC)c1 [1-ethyl-3-(2-methoxyethyl)imidazolium acetate]
1169.35

Next entry: CCn1cc[n+](CCOC)c1.N#C[N-]C#N [1-ethyl-3-(2-methoxyethyl)imidazolium dicyanamide]
1090.26

Further, for `CCn1cc[n+](CCOC)c1.O=S(=O)([O-])C(F)(F)F` ?
1326.3
